Method description: self-splicing fitness, log relative to wild type (ln ratio); higher = more splicing; Tetrahymena group I intron in knt gene, E. coli kanamycin selection, DiMSum; sequences stand for … in CUCUCU…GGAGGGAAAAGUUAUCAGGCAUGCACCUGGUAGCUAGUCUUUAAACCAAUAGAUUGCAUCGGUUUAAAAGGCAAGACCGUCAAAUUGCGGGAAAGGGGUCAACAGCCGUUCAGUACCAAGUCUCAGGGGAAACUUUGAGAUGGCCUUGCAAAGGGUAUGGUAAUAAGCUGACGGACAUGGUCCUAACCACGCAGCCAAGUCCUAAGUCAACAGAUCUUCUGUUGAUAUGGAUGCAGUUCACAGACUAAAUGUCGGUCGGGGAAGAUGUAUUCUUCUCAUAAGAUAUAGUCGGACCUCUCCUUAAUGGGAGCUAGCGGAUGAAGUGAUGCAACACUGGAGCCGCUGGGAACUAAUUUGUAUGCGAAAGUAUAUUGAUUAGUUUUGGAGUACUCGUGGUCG;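 also: selection with 25 µg/mL kanamycin versus none on LB agar overnight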
Measurement parameters: 37 °C
Output Yes for self-splicing fitness (ln) not less than -2; output No otherwise.

// query API: above_or_equal(metric=self-splicing fitness (ln), cutoff=-2) for item GCACAGCAAUAUUACGGCAA
// result Yes

// query Now consider GAAAAGCAAUAUUACGAUCG and answer again.
// result Yes

// query Consider next the sequence GGUGAGCAAUAUUACGUUUU in the same way.
// result Yes

// query Follow-up entry: AUCCAGCAAUAUUACGUGAC
// result Yes

// query Repeat for the following sequence: AUCAAGCAAUAUUACGAUGC
// result Yes

// query GGCCAGCAAUAUUACGCGUG , same question.
// result Yes

// query Check CACCAGCAAUAUUACGGCAU too.
// result Yes

// query Same question for AACGAGCAAUAUUACGAAAC please.
// result No

// query Here is the next sequence: AAGCAGCAAUAUUACGACUC
// result Yes

// query Now the sequence CUUCAGCAAUAUUACGCAAA
// result No

// query Consider next the sequence GUCGAGCAAUAUUACGGUGC in the same way.
// result Yes

// query GAUUAGCAAUAUUACGAGCG ?
// result Yes

// query What do you get for AGAUAGCAAUAUUACGUGUC ?
// result No

// query Again, but for UAGCAGCAAUAUUACGCCGA
// result Yes

// provenance: the supplement of paper PMC7877785
